Values were extracted from paper PMC10397247.

# System Under Test: T1, P2-AA-12HAA-D
# T1 chain: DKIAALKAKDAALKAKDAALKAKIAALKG
# Assay Summary: two-hybrid library CCmax;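 further: natural log of median RNA to DNA barcode read ratio; higher means stronger binding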
# Measurement Setup: mean of both orientations
Readout: interaction score

Binder: DEIAALEAEIAALEAEIAALEAEIAALEG [P1-AA-12HAA-I]
Test Result: 1.29

Binder: DEIAALEAEHAALEAEHAALEAEIAALEG [P1-AA-12HAA-H]
Test Result: -1.24

Binder: DEIAALEAEAAALEAEAAALEAEIAALEG [P1-AA-12HAA-A]
Test Result: -0.675

Binder: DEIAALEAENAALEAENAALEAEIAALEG [P1-AA]
Test Result: -1.91

Binder: DEIAALEAETAALEAETAALEAEIAALEG [P1-AA-12HAA-T]
Test Result: -1.06

Binder: DEIAALEAEEAALEAEEAALEAEIAALEG [P1-AA-12HAA-E]
Test Result: -1.42

Binder: DEIAALEAEVAALEAEVAALEAEIAALEG [P1-AA-12HAA-V]
Test Result: 1.1
